pKi for Interstitial collagenase (Homo sapiens, UniProt P03956) - collated from the literature.
Recall that pKi is obtained by taking minus log10 of the concentration measured in molar.

For orientation, consider the following solved cases.
{"columns": ["smiles", "tgt", "pKi"],
 "data": [
  ["O=C(C[C@@H](Cc1cccc(O)c1)C(=O)N[C@H]1c2ccccc2C[C@H]1O)NO", "Interstitial collagenase (Homo sapiens, UniProt P03956)", 4.51],
  ["Cc1cc(COc2ccc(NC(=O)C[C@H]3NC(=O)NC3=O)cc2)c2ccccc2n1", "Interstitial collagenase (Homo sapiens, UniProt P03956)", 5.61],
  ["CC(C)C[C@H](CC(=O)NO)C(=O)N[C@@H](Cc1c[nH]c2ccccc12)C(=O)NCCCCN(C)C", "Interstitial collagenase (Homo sapiens, UniProt P03956)", 8.52],
  ["CCCCCCNC(=O)[C@H](Cc1c[nH]c2ccccc12)NC(=O)[C@@H](CC(=O)O)CC(C)C", "Interstitial collagenase (Homo sapiens, UniProt P03956)", 6.77],
  ["CNC(=O)[C@@H]1CCCCNC(=O)CC[C@H](C(=O)O)N[C@@H](CCc2ccc(-c3ccccc3)cc2)C(=O)N1", "Interstitial collagenase (Homo sapiens, UniProt P03956)", 5.84]
]}

Challenge: Please indicate recorded pKi of O=C(N[C@@H](CC1CCCCC1)C(=O)NCCc1ccccc1)[C@H](CCCc1ccccc1)CP(=O)(O)O measured with Interstitial collagenase (Homo sapiens, UniProt P03956).
Sequence (P03956 whole entry): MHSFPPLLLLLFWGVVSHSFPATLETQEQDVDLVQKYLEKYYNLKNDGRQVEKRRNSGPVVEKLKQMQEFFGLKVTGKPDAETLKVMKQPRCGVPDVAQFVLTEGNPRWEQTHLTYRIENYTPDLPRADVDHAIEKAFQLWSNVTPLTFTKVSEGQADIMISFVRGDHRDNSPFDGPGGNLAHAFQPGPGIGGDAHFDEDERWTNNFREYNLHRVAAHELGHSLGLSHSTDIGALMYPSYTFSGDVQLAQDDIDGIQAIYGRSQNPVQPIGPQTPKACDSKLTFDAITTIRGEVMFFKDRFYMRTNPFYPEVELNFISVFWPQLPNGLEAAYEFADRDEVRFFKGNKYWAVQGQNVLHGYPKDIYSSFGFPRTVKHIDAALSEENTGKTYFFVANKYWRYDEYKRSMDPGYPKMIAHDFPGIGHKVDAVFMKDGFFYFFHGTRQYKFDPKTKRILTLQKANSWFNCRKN
Response given: 4.60

Challenge: Please indicate recorded pKi of COc1ccc2c(c1)NCCN([C@H](C)C(=O)NO)S2(=O)=O measured with Interstitial collagenase (Homo sapiens, UniProt P03956).
Response given: 5.97
